Target: T1, human MerTK (human, UniProt Q12866 26-499)
T1 construct: also called HuMER
T1 sequence: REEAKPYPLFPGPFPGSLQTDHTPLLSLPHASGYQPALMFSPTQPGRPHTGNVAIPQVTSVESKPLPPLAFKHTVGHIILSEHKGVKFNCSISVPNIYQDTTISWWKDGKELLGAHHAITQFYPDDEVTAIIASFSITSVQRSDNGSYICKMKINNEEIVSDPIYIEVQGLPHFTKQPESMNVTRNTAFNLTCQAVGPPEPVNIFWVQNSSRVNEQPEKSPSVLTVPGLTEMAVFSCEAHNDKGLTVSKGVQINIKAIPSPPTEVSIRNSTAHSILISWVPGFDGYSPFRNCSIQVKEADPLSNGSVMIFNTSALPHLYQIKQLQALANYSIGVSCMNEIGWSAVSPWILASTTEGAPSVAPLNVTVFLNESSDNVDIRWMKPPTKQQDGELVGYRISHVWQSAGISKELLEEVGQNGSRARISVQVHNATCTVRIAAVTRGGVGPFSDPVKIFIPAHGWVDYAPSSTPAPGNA
Assay: SPR BIAcore T200, Ab captured, 37C
pKd: −log10 of the molar value.

{"columns": ["BINDER", "pKd"],
 "data": [
  ["h9E3.FN.V1 LC L4M (antibody, human IgG1, name in Kabat numbering, V domains shown, Framework variant of h9E3.FN.v1 (human IgG1)) VH: EQQLVESGGGLIQPGGSLRLSCAVSGFSLSSNAMSWVRQAPGKGLEWIGIISSSGSTYSASWAKGRFTISKDSSKNTMYLQMNSLRAEDTAVYFCARVGFFVGYGAYDYGIIHRLDLWGQGTLVTVSS VL: DAQMTQSPSTLSASVGDRVTITCQSSKSIYNNNWLSWYQQKPGKPPKLLIYDASDLASGVPSRFSGSGSGTEFTLTISSLQPDDFATYYCAGGYSGDSDYAFGGGTKVEIK", 8.12],
  ["h10C3.V1 HC F91Y (antibody, name in Kabat numbering, V domains shown, Framework variant of h10C3.v1 (human IgG1)) VH: EQQLVESGGGLVQPGGSLRLSCAASGFSLSGYTMGWVRQAPGKGLEYIGVISSGGTTYYTNWAKGRFTISKDSSKNTVYLQMGSLRAEDMAVYYCARVAFTAYGGGGFPTLHRLDLWGQGTLVTVSS VL: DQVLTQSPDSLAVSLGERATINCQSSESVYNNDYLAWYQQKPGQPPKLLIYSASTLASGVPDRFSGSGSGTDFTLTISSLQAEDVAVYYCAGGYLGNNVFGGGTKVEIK", 7.83],
  ["h10F7.V1 HC I48V (antibody, human IgG1, name in Kabat numbering, V domains shown, Framework variant of h10F7.v1 (human IgG1)) VH: EQQLVESGGGLVQPGGSLRLSCAVSGFSLSGYAMSWVRQAPGKGLEYVGVISSSGSSYYPSWAKGRFTISKDSSKNTVYLQMGSLRAEDMAVYFCARVQFYVGYAVYGYGIIDRLDLWGQGTLVTVSS VL: DAVLTQSPDSLAVSLGERATINCQSSKSVYNNNWLSWYQQKPGQPPKLLIYRASTLESGVPDRFSGSGSGTDFTLTISSLQAEDVAVYFCAGGYSSSSSANAFGGGTKVEIK", 8.03]
]}
